- System: Klebsiella aerogenes DSM 30053
- PROTOCOL_DETAILS: fold change of Cadaverine concentration vs plate DMSO controls (fold change (ratio)); higher = more amine produced, active = hit call of the paper (significant change in both replicates, either direction)
- COND: incubation time: 27 h, anaerobic, 37 °C
Structures can show the parent of a compound that is named as a salt.
Each entry below carries its recorded fold change of Cadaverine concentration.
ASSAY_READOUT: fold change of Cadaverine concentration

INSERT INTO measurements (molecule, reported) VALUES
  ('CCNC(=O)CCC/C=C\C[C@@H]1[C@@H](/C=C/[C@@H](O)CCc2ccccc2)[C@H](O)C[C@@H]1O [Bimatoprost] (20 µM)', 0.997),
  ('COc1ccc(Cl)cc1C(=O)NCCc1ccc(S(=O)(=O)NC(=O)NC2CCCCC2)cc1 [Glibenclamide] (20 µM)', 1.03),
  ('CCCC1O[C@@H]2C[C@H]3[C@@H]4CCC5=CC(=O)C=C[C@]5(C)[C@H]4[C@@H](O)C[C@]3(C)[C@]2(C(=O)CO)O1 (some centres undefined) [Budesonide] (20 µM)', 0.994),
  ('CCN(CC)CCNC(=O)c1ccc(N)cc1 [Procainamide hydrochloride] (20 µM)', 1.04);

---

- Test system: Klebsiella aerogenes DSM 30053
- PROTOCOL_DETAILS: growth (OD595) fold change vs plate DMSO controls (fold change (ratio)); higher = more growth
- COND: incubation time: 27 h, anaerobic, 37 °C
Counter-ions that a name gives are not always drawn.
ASSAY_READOUT: growth

INSERT INTO assay_data (compound, reported) VALUES
  ('COCCCOc1ccnc(C[S+]([O-])c2nc3ccccc3[nH]2)c1C (stereo unspecified) [Rabeprazole sodium salt] (20 µM)', 1.03),
  ('NCCCC[C@H](N[C@@H](CCc1ccccc1)C(=O)O)C(=O)N1CCC[C@H]1C(=O)O [Lisinopril] (20 µM)', 1.14),
  ('CC(=O)NS(=O)(=O)c1ccc(N)cc1 [Sulfacetamide sodic hydrate] (20 µM)', 0.974),
  ('CC[N+]1(CC)CCC(=C(c2ccccc2)c2ccccc2)C1C (stereo unspecified) [Prifinium Bromide] (20 µM)', 1.04),
  ('N[C@@H](C(=O)N[C@@H]1C(=O)N2C(C(=O)O)=C(Cl)CS[C@H]12)c1ccccc1 [Cefaclor hydrate] (20 µM)', 1.06),
  ('CC(=O)OCC(=O)NCCCOc1cccc(CN2CCCCC2)c1 [Roxatidine acetate hydrochloride] (20 µM)', 1.01),
  ('CC(COc1ccccc1)NC(C)C(O)c1ccc(O)cc1 (stereo unspecified) [Isoxsuprine hydrochloride] (20 µM)', 1),
  ('OC[C@H]1O[C@H](O[C@H]2O[C@H](CO)[C@@H](O)[C@H](O)[C@H]2O)[C@H](O)[C@@H](O)[C@@H]1O [Trehalose] (50 µM)', 1.03),
  ('C[C@H]1[C@H](NC(=O)/C(=N\OC(C)(C)C(=O)O)c2csc(N)n2)C(=O)N1S(=O)(=O)O [Aztreonam] (20 µM)', 0.662),
  ('CC(=O)Oc1cc2c(s1)CCN(C(C(=O)C1CC1)c1ccccc1F)C2 (stereo unspecified) [Prasugrel] (20 µM)', 1),
  ('CCC(=O)c1c(O)cc(O)cc1O [Flopropione] (20 µM)', 0.997),
  ('CC(C)C(=O)Nc1ccc([N+](=O)[O-])c(C(F)(F)F)c1 [Flutamide] (20 µM)', 0.938),
  ('CCOC(=O)Nc1ccc2c(c1)N(C(=O)CCN1CCOCC1)c1ccccc1S2 [Moricizine hydrochloride] (20 µM)', 0.995),
  ('CC(=O)/N=c1/sc(S(N)(=O)=O)nn1C [Methazolamide] (20 µM)', 1.01),
  ('CC(C)c1nc(N(C)S(C)(=O)=O)nc(-c2ccc(F)cc2)c1/C=C/[C@@H](O)C[C@@H](O)CC(=O)O [Rosuvastatin] (20 µM)', 1.02),
  ('CC(=O)N[C@@H](CC(C)C)C(=O)O [N-Acetyl-L-leucine] (20 µM)', 0.991);
